Cited source: paper PMC6382874

- studyTarget: PKM1 (Homo sapiens)
- Construct: His-tag (N); made in house; host or cells: Escherichia coli BL21
- Sequence (P14618 1-531 isoform P14618-2): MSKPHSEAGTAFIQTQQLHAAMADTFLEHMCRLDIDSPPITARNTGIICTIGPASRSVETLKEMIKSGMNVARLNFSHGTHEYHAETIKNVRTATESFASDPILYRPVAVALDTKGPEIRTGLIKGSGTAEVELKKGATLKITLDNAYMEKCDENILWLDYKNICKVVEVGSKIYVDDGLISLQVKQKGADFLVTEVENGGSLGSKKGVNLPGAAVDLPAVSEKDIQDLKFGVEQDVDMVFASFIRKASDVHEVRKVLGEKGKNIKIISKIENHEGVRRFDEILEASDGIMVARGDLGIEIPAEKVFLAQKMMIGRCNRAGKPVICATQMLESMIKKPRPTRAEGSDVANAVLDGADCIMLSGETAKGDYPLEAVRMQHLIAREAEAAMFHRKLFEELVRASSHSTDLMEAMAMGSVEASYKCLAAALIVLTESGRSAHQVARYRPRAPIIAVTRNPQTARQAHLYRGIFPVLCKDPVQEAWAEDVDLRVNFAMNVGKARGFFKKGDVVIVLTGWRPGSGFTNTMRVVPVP
- assayComment: fluorescent PK-LDH coupled assay, PKM1
- Format: biochemical
- Protocol: Human cDNA for PKM2, PKM1, and VDAC3 were separately cloned into a pET28a (+) and pGEX-4T-1 vector with an N-terminal His-tag and N-terminal GST-tag and purified from the Escherichia coli strain BL21 (Invitrogen) using Ni–agarose beads and GST agarose beads (Qiagen) as described previously. PKL was purchased from Sino Biological Inc. in China. Pyruvate kinase activity was measured with a fluorescent pyruvate kinase–lactate dehydrogenase coupled assay as described previously. […]
endpointName: IC50 (µM)
Unit µM implied. Number only.

Task item: What measured IC50 goes with CC1=C(COP(N)(=O)N(CCCl)CCCl)C(=O)c2ccccc2C1=O (stereo not shown) [NP-1] ?
Reply: 13.7
